# tested on: PDGFRβ(h) (Homo sapiens, UniProt P09619)
# Construct: purchased Caliper Life Sciences
# Sequence (P09619 33-1106): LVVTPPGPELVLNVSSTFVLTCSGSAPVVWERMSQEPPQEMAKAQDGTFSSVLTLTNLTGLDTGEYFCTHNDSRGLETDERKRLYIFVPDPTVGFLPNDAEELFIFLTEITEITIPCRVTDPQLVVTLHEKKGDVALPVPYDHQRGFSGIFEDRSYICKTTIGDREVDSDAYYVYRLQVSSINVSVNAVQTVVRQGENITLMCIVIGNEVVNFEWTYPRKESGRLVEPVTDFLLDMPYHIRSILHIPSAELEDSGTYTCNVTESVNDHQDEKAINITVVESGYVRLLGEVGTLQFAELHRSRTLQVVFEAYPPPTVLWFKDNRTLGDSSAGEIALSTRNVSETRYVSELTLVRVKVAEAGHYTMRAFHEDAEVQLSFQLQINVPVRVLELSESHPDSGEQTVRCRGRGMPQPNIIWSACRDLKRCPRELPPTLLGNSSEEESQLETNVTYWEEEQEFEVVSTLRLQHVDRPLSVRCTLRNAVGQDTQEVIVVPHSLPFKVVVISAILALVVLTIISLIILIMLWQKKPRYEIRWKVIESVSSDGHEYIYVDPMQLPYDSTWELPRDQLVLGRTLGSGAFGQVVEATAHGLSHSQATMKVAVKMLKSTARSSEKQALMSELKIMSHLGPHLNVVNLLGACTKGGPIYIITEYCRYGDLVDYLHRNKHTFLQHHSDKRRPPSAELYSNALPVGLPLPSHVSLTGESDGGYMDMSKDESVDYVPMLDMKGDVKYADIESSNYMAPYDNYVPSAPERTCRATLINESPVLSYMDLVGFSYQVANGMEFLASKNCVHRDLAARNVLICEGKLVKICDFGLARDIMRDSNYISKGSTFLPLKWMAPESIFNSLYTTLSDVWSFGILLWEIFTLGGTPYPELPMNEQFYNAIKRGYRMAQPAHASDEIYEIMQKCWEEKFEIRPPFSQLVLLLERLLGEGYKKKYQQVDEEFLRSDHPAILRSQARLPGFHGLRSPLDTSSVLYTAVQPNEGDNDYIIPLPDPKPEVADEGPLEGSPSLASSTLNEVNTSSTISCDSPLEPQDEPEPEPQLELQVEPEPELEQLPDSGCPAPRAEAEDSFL
# protocol details: Other kinases, single-concentration inhibition (Table 3)
# Type: biochemical
# condition details: 1 μM
endpoint label: % kinase activity remaining (%)
Numbers only, in %.

The examples below pair each entry with its known result.
- molecule: "C=C[C@@H]1C[C@@H]2/C=C/COc3cccc(c3)Nc3ncc(F)c(n3)N[C@H]2[C@H]1C(N)=O (single isomer, unassigned) [Example 3]"
  tested on: "PDGFRβ(h) (Homo sapiens, UniProt P09619)"
  % kinase activity remaining / %: 110
- molecule: "CN1CCN(c2ccc3cc2OCCS[C@@H]2C[C@@H]4C[C@H]2[C@@H](Nc2nc(ncc2F)N3)[C@H]4C(N)=O)CC1 [Example 22]"
  tested on: "PDGFRβ(h) (Homo sapiens, UniProt P09619)"
  % kinase activity remaining / %: 112
- molecule: "CC[C@@H]1C[C@@H]2CCCOc3cccc(c3)Nc3ncc(F)c(n3)N[C@H]2[C@H]1C(N)=O (single isomer, unassigned) [Example 5]"
  tested on: "PDGFRβ(h) (Homo sapiens, UniProt P09619)"
  % kinase activity remaining / %: 117
- molecule: "N#Cc1ccc2cc1NC(=O)CS[C@@H]1C[C@@H]3C[C@H]1[C@@H](Nc1nc(ncc1F)N2)[C@H]3C(N)=O [Example 26]"
  tested on: "PDGFRβ(h) (Homo sapiens, UniProt P09619)"
  % kinase activity remaining / %: 58
- molecule: "CC[C@@H]1C[C@@H]2/C=C\\COc3cccc(c3)Nc3ncc(F)c(n3)N[C@H]2[C@H]1C(N)=O (single isomer, unassigned) [Example 6]"
  tested on: "PDGFRβ(h) (Homo sapiens, UniProt P09619)"
  % kinase activity remaining / %: 107
- molecule: "NC(=O)[C@H]1[C@H]2C[C@H]3[C@H]1Nc1nc(ncc1F)Nc1cccc(c1)C(=O)CS[C@@H]3C2 [Example 11]"
  tested on: "PDGFRβ(h) (Homo sapiens, UniProt P09619)"
  % kinase activity remaining / %: 93
- molecule: "NC(=O)[C@H]1[C@H]2C[C@H]3[C@H]1Nc1nc(ncc1F)Nc1cccc(c1)NC(=O)CS[C@@H]3C2 [Example 27]"
  tested on: "PDGFRβ(h) (Homo sapiens, UniProt P09619)"
  % kinase activity remaining / %: 115
- molecule: "NC(=O)[C@H]1[C@H]2C[C@H]3[C@H]1Nc1nc(ncc1F)Nc1cccc(c1)OCCS[C@@H]3C2 [Example 20]"
  tested on: "PDGFRβ(h) (Homo sapiens, UniProt P09619)"
  % kinase activity remaining / %: 110

# batch: return % kinase activity remaining for each of the 2 molecules below
1. CN1CCN(c2ccc3cc2NC(=O)CS[C@@H]2C[C@@H]4C[C@H]2[C@@H](Nc2nc(ncc2F)N3)[C@H]4C(N)=O)CC1 [Example 24]
2. NC(=O)[C@H]1[C@H]2C[C@H]3[C@H]1Nc1nc(ncc1F)Nc1cccc(c1)CSS[C@@H]3C2 [Example 10]

Result:
[95, 149]

The origin of these recorded values is patent US8815872B2.
